Target: T1, Recombinant human CD5 extracellular domain (CD5-ECD) (human, UniProt P06127 25-372)
T1 construct: In-house protein made as CD5-ECD - TEV site - hGH fusion; CD5-ECD isolated by TEV cleavage and nickel column; also called CD5-ECD protein
T1 sequence: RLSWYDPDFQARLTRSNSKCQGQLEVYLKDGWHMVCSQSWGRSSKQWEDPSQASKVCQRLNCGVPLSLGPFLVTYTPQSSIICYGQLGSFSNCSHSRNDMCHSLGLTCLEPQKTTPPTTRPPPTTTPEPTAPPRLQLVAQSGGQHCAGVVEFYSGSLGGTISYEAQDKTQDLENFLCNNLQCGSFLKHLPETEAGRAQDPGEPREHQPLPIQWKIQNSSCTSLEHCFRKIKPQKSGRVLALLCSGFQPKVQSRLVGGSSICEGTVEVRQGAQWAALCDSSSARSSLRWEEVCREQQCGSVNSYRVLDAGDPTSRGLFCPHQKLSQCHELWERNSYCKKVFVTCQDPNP
Experiment: SPR (Biacore 2000), antibody captured by anti-human Fc, CD5-ECD in solution, 1:1 fit;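 also: CM5 chip, binding curves at four CD5-ECD concentrations fitted globally, with the signal of a non-CD5-binding control antibody subtracted as reference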
Parameter: koff (s⁻¹)
Answers are plain numbers, in s⁻¹.

Which measured koff value corresponds to Anti-CD5 antibody 11 (4E24) (antibody, human IgG1, V domains shown, also called Ab11; Clone 11) VH: EVQLKESGAELVRPGGSVKISCKGSGYTFTNFAIHWVKQSHIKTLEWIGLISTSSGDVSYNQKFKDKATMTVDKSSSTAYMELARLTSEDSAIYYCARHYGANNYFDY VL: EIVLTQSPTIMSASPGEQVTMTCRTNSSVSSSYLHWYQQKSGASPKLWIYGTSNLASGVPTRFSGSGSGTSYSLTISSVEAGDAATYFCQQYSGYPLT ? 2.2e-05

Follow-up item: Anti-CD5 antibody 9 (6M4) (antibody, human IgG1, V domains shown, also called Ab9; Clone 9) VH: QVQLKESGPELEKPGASVKISCKASGYSFTAYSMNWVKQNNGMSLEWIGSIDPYYGDTKYAQKFKGKATLTVDKASSTAYLQLKSLTSEDSAVYYCARRMITTGDWYFDV VL: HIVLTQSPSSLSASLGDRVTISCRASQDISTYLNWYQQKPDGTVKLLIFYTSRLHAGVPSRFSGSGSGTHHSLTISNLEQEDIATYFCQQGNSLPFT 6.17e-05

Follow-up item: Anti-CD5 antibody 17 (7H7) (antibody, human IgG1, V domains shown, also called Ab17; Clone 17) VH: EVQLVESGPGLVQPSQSLSITCTVSGFSLTNYDVHWVRQSPGKGLEWLGVIWNYGNTDYNAAFISRLSIRKDSSKSQVFFTMSSLQTPDTAIYYCARNHGDGYYNWYFDV VL: NIVLTQSPSSLSESLGGKVTITCKASQDINKYIAWYQYKPGKGPRLLIHYTSTLQPGIPSRFSGSGSGRDYSFSISNLEPEDIATYYCLQYDNLWT 8.45e-05

Follow-up item: Anti-CD5 antibody 34 (5O24) (antibody, human IgG1, V domains shown, also called Ab34; Clone 34) VH: EVKLVESGAELVRSGASVKLSCAASGFNIKDYYIHWVKQRPEQGLEWIGWIDPENGRTEYAPKFQGKATMTADTSSNTAYLQLSSLTSEDTAVYYCNNGNYVRHYYFDY VL: DVVLTQSPAILSASPGEKVTMTCRAISSVSYMHWYQQKPGSSPKPWIYATSNLASGVPARFSGSGSGTSYSLTISRVEAEDAATYYCQQWSSNPRT 0.00084

Follow-up item: Anti-CD5 antibody 1 (1D8) (antibody, human IgG1, V domains shown, also called Ab1; Clone 1) VH: EVQLQESGPELVKPEASVKISCKASGYSFTGYTMNWVKQSHGKNLEWIGLINPYNGGTTYNQKFKGKATLTVDTSSSTAFMELLSLTSEDSAVYYCARDYYGSSPDFDY VL: DIVLTQSTSSLSASLGDRVTINCSASQGISNHLNWFQQKSDGTVKLLIYFTSSLHSGVPSRFSGSGSGTDYSLTISNLEPEDIAAYYCQQYSNLPYT 0.000557

Follow-up item: Anti-CD5 antibody 14 (7P9) (antibody, human IgG1, V domains shown, also called Ab14; Clone 14) VH: EVQLKESGAELVKPGASVKLSCTASGFNIKDTYMHWVKQRPEQGLEWIGRIDPANGNTKYDPKFQGKATITADTSSNTAYLQLSSLTSEDTAVYYCAREENYYGTYYFDY VL: NIVLTQSPASLAASVGETVTITCRASENIYYNLAWYQQKQGKSPQLLIYNANSLEDGVPSRFSGSGSGTQYSMKINSMQPEDTATYFCKQVYDVPFT 0.0018

Follow-up item: Anti-CD5 antibody 29 (8E15) (antibody, human IgG1, V domains shown, also called Ab29; Clone 29) VH: QVQLKESGADLVKPGASVKLSCTASGFNIKDTYMNWVKERPEQGLEWIGRIDPANGNTKYDPKFQGKATITADTSSNTGYLQLSSLTSEDTAVYYCASYDPDY VL: DIVLTQSPASLAASVGETVTITCRASENIYYNLAWYQQKQGKSPQLLIYNANSLEGGVPSRFSGSGSGTQYSMKINSMQPEDTATYFCKQAYDVPWT 0.00137

Follow-up item: Anti-CD5 antibody 23 (2H11) (antibody, V domains shown, also called Ab23; Clone 23) VH: EVQLQQSGPELVKPGTSVKISCKASGYTFTDYYINWVKQKPGQGLEWIGWIYPGGGNTRYIERFKGKATLTVDTSSSTAYMQLSSLTSEDTAVYFCARNGYWYFDV VL: DIVLTQSPSSLTVTAGEKVTMSCKSSQSLLNQKNYLTWYQQKTGQPPKLLIYWASTRESGVPDRFTGSGSGTDFTLTISSVQAEDLAVYYCQNDYDYPYT 0.000105

List the reported koff of each binder below.
1. Anti-CD5 antibody 12 (4F10) (antibody, human IgG1, V domains shown, also called Ab12; Clone 12) VH: EVQLQESGAELVRPGVSVKISCKGSGYTFTNFAIHWVKQSHAKSLEWIGLISSNSGDVSYNQKFKGKATMTVDKSSSTAYMELARLTSEDSAIYYCARHYGAHNYFDY VL: DIVLTQSPAIMSASPGEQVTMTCRATSSISSSYLHWYQQKSGASPKLWIYGTSNLASGVPTRFSGSGSGTSYSLTISSVEAEDAATYYCQQYSDYPLT
2. Anti-CD5 antibody 18 (1E7) (antibody, human IgG1, V domains shown, also called Ab18; Clone 18) VH: QVQLKESGGGLVQPGGSLKLSCAASGFTFSNYGMSWVRQIPDKRLELVAAINSNGDITYDPDSVKGRFTISRDNANNSLFLQMRSLKSEDTAMYYCARGTAWFTYWGQGTLVT VL: DIVLTQSPASLSASVGETVIITCRASENIYSYLVWYQQKQGKSPQLLVYNAKTLAEGVPSRFSGSGSGTQFSLKINSLQSEDFGSYSCQHHYGYPYT
3. Anti-CD5 antibody 15 (8E24) (antibody, human IgG1, V domains shown, also called Ab15; Clone 15) VH: QVTLKESGAELVRPGASVKLSCKASGYSFTSYWMNWVKQRPGQGLEWIGMIHPSDSETRLNQKFKDKATLTVDKSSSTAYMQLSSPTSEDSAVYYCARWGDHDDAMDF VL: DIVLTQSPASLSASVGESVTITCRPSENIYGYFAWYQQRQGKSPQLLVYNAKTLAEGVPSRFSGSGSGTHFSLKINSLQPEDFGTYYCQHHYGTPFT

[0.000115, "3.27e-05", 0.00127]
